Attribution: the supplement of paper PMC10567573

This section presents variants with their documented protein stability index values.
B1: C19orf51 (parent)
chain: FAPQTGARPSETFARFCKSQESAL

Variants of: B1
TEST_NAME: protein stability index of a GFP-peptide fusion (GPS, HEK-293T) (PSI 1-6); higher = more stable;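 further: lentivirally expressed fusions sorted by FACS into six bins by GFP to DsRed ratio, PSI derived from sequencing read proportions per bin multiplied by bin number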
MEASUREMENT_PARAMETERS: c terminus: a fixed tail appended
I only need the number, thanks.

Guide cases for protein stability index, answers given:
// protein stability index lookup, key: F16G
2.38

So what's the measured protein stability index for this one? A23I
1.89

protein stability index for Q20P ?
2.65

Consider the variant shown here: G6F What is its recorded protein stability index?
2.86

Quick check: protein stability index of Q4T ?
2.06

Next:
Quick one: protein stability index for Q20I ?
2.92

// returns reported protein stability index for input A14F
1.33

Name the recorded protein stability index for A14S .
1.89
